MIC for assorted compounds
Tested on: Escherichia coli
METHOD_NOTES: Anti-microbial activity assay, MIC by broth microdilution
Format: cell-based
RECORDED_CONDITIONS: Escherichia coli; strain UB1005; read-out: MIC Escherichia coli UB1005
Description: Anti-Microbial Activity Assay. The antibacterial activity of compounds is determined by the minimal inhibitory concentration (MIC) method. […]

For this compound ( COc1ccc2ncc(OCC[C@H]3CC[C@H](NC(=O)c4ccc5c(c4)NC(=O)CS5)CC3)cc2n1 ), measured MIC is > 32 µg/mL

// MIC lookup, compound = COc1ccc2ncc(SCCN3CCC(NC(=O)c4cc5c(cc4Cl)SCC(=O)N5)CC3)nc2c1 , result: ≤ 2 µg/mL

In plain terms, COc1ccc2ncc(OCCN3CCC(NC(=O)c4ccc5c(c4)NC(=O)CS5)CC3)nc2c1 has a documented MIC of 8 µg/mL

What the record says about COc1ccc2ncc(C(=O)OC[C@H]3CC[C@H](NC(=O)c4ccc5c(c4)NC(=O)CS5)CC3)cc2c1 : MIC is > 32 µg/mL

Input COc1ccc2ncc(SCCN3CCC(NC(=O)c4cc(-c5cccs5)on4)CC3)nc2c1 . Output MIC: > 32 µg/mL

Item: COc1ccc2ncc(SCCN3CCC(N(C)C(=O)c4ccc5c(c4)NC(=O)CS5)CC3)nc2c1 | MIC: 16 µg/mL

Per the record, COc1ccc2ncc(C(=O)OC[C@H]3CC[C@H](NCc4ccc5c(c4)OCCO5)CC3)cc2c1 has MIC of > 32 µg/mL

Measured MIC, COc1ccc2ncc(SCCN3CCC(NC(=O)c4ccc5c(c4)OCCO5)CC3)nc2c1 : ≥ 32 µg/mL

For reference, reported MIC for COc1ccc2ncc(SCCN3CCC(NC(=O)c4ccc5c(n4)NC(=O)CS5)CC3)nc2c1 stands at 4 µg/mL

Entry under test: COc1ccc2ncc(OCCN3CCC(CNC(=O)c4cc5c(cc4Cl)SCC(=O)N5)CC3)nc2c1 . Its MIC was 4 µg/mL

Notebook: COc1ccc2ncc(OCC[C@H]3CC[C@H](NC(=O)c4ccc5c(c4)NC(=O)CO5)CC3)cc2n1 , MIC read as > 32 µg/mL

// sample COc1ccc2ncc(OCCCN3CCC(CNCc4ccc5c(n4)NC(=O)CO5)CC3)nc2c1 , its MIC was 4 µg/mL

---

Test system: Escherichia coli
METHOD_NOTES: Anti-microbial activity assay, MIC by broth microdilution
Assay type: cell-based
RECORDED_CONDITIONS: Escherichia coli; strain UB1005; read-out: MIC Escherichia coli UB1005
Method: Anti-Microbial Activity Assay. The antibacterial activity of compounds is determined by the minimal inhibitory concentration (MIC) method. […]
RESULT_TYPE: MIC (µg/mL)
Give just the number in µg/mL; leave the unit off.

[
  {
    "COMPOUND": "COc1ccc2ncc(SCCN3CCC(NC(=O)c4cc5c(cc4Cl)SCCN5)CC3)nc2c1",
    "EXPERIMENTAL_RESULT": 4
  }
]

Kindly note: Escherichia coli, CCN(Cc1ccc2c(c1)OCCO2)C1CCN(CCSc2cnc3ccc(OC)cc3n2)CC1 , MIC value reported: 32

Measured on Escherichia coli, COc1ccc2ncc(SCCN3CCC(NC(=O)c4ccc5c(n4)NC(=O)CS5)CC3)cc2c1 has a documented MIC of 16

# MIC measured on Escherichia coli for item COc1ccc2ncc(SCCN3CCC(NCCSc4cccs4)CC3)nc2c1 = 16

Considering COc1ccc2ncc(OCCN3CC(NC(=O)c4ccc5c(c4)NC(=O)CS5)C3)nc2c1 , its MIC with Escherichia coli was recorded as 16

The recorded MIC with Escherichia coli for CCC(Oc1cnc2ccc(OC)cc2n1)N1CCCC(NCc2ccc3c(c2)NC(=O)CS3)C1 (centres unmarked) was 16

Entry COc1ccc2ncc(SCCN3CCC(NC(=O)c4ccc5c(c4)NC(=O)CO5)CC3)nc2c1 : MIC on Escherichia coli = 4
